Where do the numbers come from? From patent US9828381B2.

# subject_of_test: GABA-B receptor (Rattus norvegicus (Rat), UniProt O88871+Q9Z0U4)
# Sequence (Q9Z0U4 17-960): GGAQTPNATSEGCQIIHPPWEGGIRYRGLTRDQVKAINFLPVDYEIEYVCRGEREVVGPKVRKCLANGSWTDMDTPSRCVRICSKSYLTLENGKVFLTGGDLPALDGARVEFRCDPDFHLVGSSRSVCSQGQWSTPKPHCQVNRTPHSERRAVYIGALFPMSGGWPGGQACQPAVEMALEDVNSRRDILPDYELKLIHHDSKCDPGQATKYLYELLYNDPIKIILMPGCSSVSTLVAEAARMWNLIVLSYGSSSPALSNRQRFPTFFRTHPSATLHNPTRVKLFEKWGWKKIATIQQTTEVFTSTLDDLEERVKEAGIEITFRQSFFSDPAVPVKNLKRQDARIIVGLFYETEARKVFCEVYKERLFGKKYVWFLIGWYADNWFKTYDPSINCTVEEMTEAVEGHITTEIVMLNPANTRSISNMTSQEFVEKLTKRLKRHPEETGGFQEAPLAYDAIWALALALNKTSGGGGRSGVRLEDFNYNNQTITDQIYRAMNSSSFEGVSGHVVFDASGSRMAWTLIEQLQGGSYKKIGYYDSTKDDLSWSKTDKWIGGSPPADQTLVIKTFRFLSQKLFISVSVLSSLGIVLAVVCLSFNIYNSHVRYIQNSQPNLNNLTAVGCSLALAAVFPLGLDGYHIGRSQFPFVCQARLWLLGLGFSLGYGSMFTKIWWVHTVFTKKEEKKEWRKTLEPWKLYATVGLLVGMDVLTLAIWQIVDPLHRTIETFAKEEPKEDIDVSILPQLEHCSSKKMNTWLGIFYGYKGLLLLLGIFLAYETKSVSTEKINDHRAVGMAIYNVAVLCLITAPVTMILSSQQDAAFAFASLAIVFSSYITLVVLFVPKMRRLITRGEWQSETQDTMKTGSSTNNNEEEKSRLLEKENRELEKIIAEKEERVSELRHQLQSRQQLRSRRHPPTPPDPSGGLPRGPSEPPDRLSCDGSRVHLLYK
# Sequence (O88871 41-940): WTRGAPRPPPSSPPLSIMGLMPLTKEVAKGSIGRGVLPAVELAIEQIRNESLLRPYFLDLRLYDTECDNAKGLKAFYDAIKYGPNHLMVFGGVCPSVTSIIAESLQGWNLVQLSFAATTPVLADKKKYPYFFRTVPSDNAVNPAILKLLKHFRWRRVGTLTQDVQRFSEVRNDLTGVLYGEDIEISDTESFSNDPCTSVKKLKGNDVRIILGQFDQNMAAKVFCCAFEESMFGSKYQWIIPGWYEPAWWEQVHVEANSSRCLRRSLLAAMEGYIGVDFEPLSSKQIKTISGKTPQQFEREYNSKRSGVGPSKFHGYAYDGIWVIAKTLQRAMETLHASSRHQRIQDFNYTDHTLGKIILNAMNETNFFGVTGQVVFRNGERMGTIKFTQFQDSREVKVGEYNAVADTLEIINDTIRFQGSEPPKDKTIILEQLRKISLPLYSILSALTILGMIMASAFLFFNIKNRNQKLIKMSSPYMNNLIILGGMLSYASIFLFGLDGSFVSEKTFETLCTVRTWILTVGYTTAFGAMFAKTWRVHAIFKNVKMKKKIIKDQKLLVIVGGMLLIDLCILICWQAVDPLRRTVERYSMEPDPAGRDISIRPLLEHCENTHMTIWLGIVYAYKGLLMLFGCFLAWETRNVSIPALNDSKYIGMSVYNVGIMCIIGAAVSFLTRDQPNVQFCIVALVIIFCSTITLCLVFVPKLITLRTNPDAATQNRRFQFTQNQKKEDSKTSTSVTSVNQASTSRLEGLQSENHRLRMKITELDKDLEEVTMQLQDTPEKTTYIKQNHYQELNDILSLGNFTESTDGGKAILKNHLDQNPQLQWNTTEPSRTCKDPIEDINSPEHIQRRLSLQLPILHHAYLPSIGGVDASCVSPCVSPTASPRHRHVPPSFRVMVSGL
# test_method_notes: [35S]GTPgS binding assay, rat cortical membranes, in presence of EC25 GABA
# experimental_setup: rat brain cortex membranes; in presence of 1 μM GABA (EC25); positive allosteric modulation
pEC50: −log10 of the molar value.
metric: pEC50

The recorded pEC50 with GABA-B receptor (Rattus norvegicus (Rat), UniProt O88871+Q9Z0U4) for CC(=O)N[C@@H]1CCN(c2cc(C)nc3cc(C(C)c4ccc(Cl)cn4)nn23)C1 (stereo partly drawn) was < 5.00

The recorded pEC50 with GABA-B receptor (Rattus norvegicus (Rat), UniProt O88871+Q9Z0U4) for Cc1cc(N2CCC[C@H](O)C2)n2nc(C(C)c3ccc(Cl)cn3)cc2n1 (stereo partly drawn) was 5.69

The recorded pEC50 with GABA-B receptor (Rattus norvegicus (Rat), UniProt O88871+Q9Z0U4) for Cc1cc(N2CC[C@H]2C(N)=O)n2nc(C(C)c3ccc(C(F)(F)F)cc3)cc2n1 (stereo partly drawn) was < 5.00

* * *

# subject_of_test: GABA-B receptor (Rattus norvegicus (Rat), UniProt O88871+Q9Z0U4)
# test_method_notes: [35S]GTPgS binding assay, rat cortical membranes, in presence of EC25 GABA
# experimental_setup: rat brain cortex membranes; in presence of 1 μM GABA (EC25); positive allosteric modulation
Could you please report measured log10 of EC50 for the items listed next?
For clarity, the numbers are log10 values of EC50 expressed in µM.

The molecule listed as `Cc1cc(NC(C)(C)C)n2nc(Cc3ccc(Cl)cc3)cc2n1` has a reported log10 of EC50 of 0.01

The molecule listed as Cc1cc(N2CCC[C@@H](O)C2)n2nc(C(C)c3ccc(Cl)cc3)cc2n1 (some centres unmarked) has a reported log10 of EC50 of -1.24

The molecule listed as Cc1cc(NC2(C)CC2)n2nc(C(C)c3ccc(Cl)cc3)cc2n1 (centres unmarked) has a reported log10 of EC50 of -0.36

The molecule listed as Cc1cc(N2CCCC(C(N)=O)C2)n2nc(Cc3ccc(Cl)cc3)cc2n1 (centres unmarked) has a reported log10 of EC50 of 1.00

The molecule listed as `Cc1cc(N2CCC[C@H](O)C2)n2nc(Cc3ccc(Cl)cc3)cc2n1` has a reported log10 of EC50 of -0.01

The molecule listed as Cc1cc(N2CCC(F)CC2)n2nc(C(C)c3ccc(C(F)(F)F)cc3)cc2n1 (centres unmarked) has a reported log10 of EC50 of -0.42

The molecule listed as Cc1cc(N2CCC[C@H](O)C2)n2nc(C(C)c3ccc(Cl)cc3)cc2n1 (some centres unmarked) has a reported log10 of EC50 of -0.82

The molecule listed as `Cc1cc(N2CCCC(F)(F)C2)n2nc(Cc3ccc(Cl)cc3)cc2n1` has a reported log10 of EC50 of 0.46

The molecule listed as CC(=O)N[C@H]1CCN(c2cc(C)nc3cc(C(C)c4ccc(C(F)(F)F)cc4)nn23)C1 (some centres unmarked) has a reported log10 of EC50 of 0.30

* * *

# subject_of_test: GABA-B receptor (Rattus norvegicus (Rat), UniProt O88871+Q9Z0U4)
# test_method_notes: [35S]GTPgS binding assay, rat cortical membranes, in presence of EC25 GABA
# experimental_setup: rat brain cortex membranes; in presence of 1 μM GABA (EC25); positive allosteric modulation
metric: EC50 (nM)
Please give a number only; it is taken to be in nM.

The recorded EC50 with GABA-B receptor (Rattus norvegicus (Rat), UniProt O88871+Q9Z0U4) for Cc1cc(N2CCC(F)CC2)n2nc(C(C)c3ccc(Cl)cc3)cc2n1 (stereo not drawn) was 128

The recorded EC50 with GABA-B receptor (Rattus norvegicus (Rat), UniProt O88871+Q9Z0U4) for `Cc1cc(N2CCC[C@@H](CO)C2)n2nc(Cc3ccc(Cl)cc3)cc2n1` was 1380

The recorded EC50 with GABA-B receptor (Rattus norvegicus (Rat), UniProt O88871+Q9Z0U4) for Cc1cc(N2CCCCC2CCO)n2nc(Cc3ccc(Cl)cc3)cc2n1 (stereo not drawn) was 1400
